Conditions: in n-propyl acetate, 278.15 K
recorded endpoint: solubility (mole fraction)
Simply state the number, no unit and no words.

Q: Please give the measured solubility (mole fraction) for this molecule: O=C1OC(=O)[C@H]2[C@@H]1[C@@H]1C=C[C@H]2C1
Result: 0.0249

---

Settings: in ethanol, 293.15 K
recorded endpoint: solubility (mole fraction)

Q: Please give the measured solubility (mole fraction) for this compound: O=C1OC(=O)[C@H]2[C@@H]1[C@@H]1C=C[C@H]2C1
Result: 0.00441

---

Details: in ethyl acetate, 278.15 K
recorded endpoint: solubility (mole fraction)
Simply state the number, no unit and no words.

Q: Please give the measured solubility (mole fraction) for this compound: O=C1OC(=O)[C@H]2[C@@H]1[C@@H]1C=C[C@H]2C1
Result: 0.0293
